These molecules were tested on UniProtKB P30542; AC50 is the recorded read-out.
Sequence (P30542 whole entry): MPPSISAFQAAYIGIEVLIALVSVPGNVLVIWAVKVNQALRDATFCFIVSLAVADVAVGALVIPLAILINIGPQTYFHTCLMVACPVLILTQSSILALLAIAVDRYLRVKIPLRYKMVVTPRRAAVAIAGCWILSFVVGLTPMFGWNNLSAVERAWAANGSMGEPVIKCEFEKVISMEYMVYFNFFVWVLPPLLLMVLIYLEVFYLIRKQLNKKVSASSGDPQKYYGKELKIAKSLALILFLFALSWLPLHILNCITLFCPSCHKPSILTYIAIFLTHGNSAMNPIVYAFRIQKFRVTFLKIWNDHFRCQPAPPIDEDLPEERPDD

| MOLECULE | AC50 |
| --- | --- |
| CCC(COC(=O)c1cc(OC)c(OC)c(OC)c1)(c1ccccc1)N(C)C (configuration not stated) [TRIMEBUTINE] | > 30 µM |
| Clc1ccc(C(Cn2ccnc2)OCc2ccsc2Cl)c(Cl)c1 (configuration not stated) [TIOCONAZOLE] | > 30 µM |
| CC(C)N(CCC(C(N)=O)(c1ccccc1)c1ccccn1)C(C)C (configuration not stated) [DISOPYRAMIDE] | > 30 µM |
| CC(C)Cc1ccc(C(C)C(=O)O)cc1 (configuration not stated) [IBUPROFEN] | > 30 µM |
| Clc1ccc2c(N3CCN(CCCN4CCN(c5ccnc6cc(Cl)ccc56)CC4)CC3)ccnc2c1 [PIPERAQUINE] | > 30 µM |
| CN(C)CCc1c[nH]c2ccc(Cn3cncn3)cc12 [RIZATRIPTAN] | > 30 µM |
| CC(C(=O)O)c1ccc(-c2ccccc2)c(F)c1 (configuration not stated) [FLURBIPROFEN] | > 10 µM |
| CCN1CCCC1CNC(=O)c1cc(S(=O)(=O)CC)c(N)cc1OC (configuration not stated) [AMISULPRIDE] | > 30 µM |
| O=C1CN=C(c2ccccc2)c2cc([N+](=O)[O-])ccc2N1 [NITRAZEPAM] | > 10 µM |
| N[C@@H](CC(=O)N1CCn2c(nnc2C(F)(F)F)C1)Cc1cc(F)c(F)cc1F [SITAGLIPTIN] | > 30 µM |
| CNC1=Nc2ccc(Cl)cc2C(c2ccccc2)=[N+]([O-])C1 [CHLORDIAZEPOXIDE] | > 30 µM |
| O=C(O)c1ccccc1Nc1cc(Cl)ccc1C(=O)O [LOBENZARIT] | > 30 µM |
| CN1C[C@H](C(=O)N[C@]2(C)O[C@@]3(O)[C@@H]4CCCN4C(=O)[C@H](Cc4ccccc4)N3C2=O)C=C2c3cccc4[nH]cc(c34)C[C@H]21 [ERGOTAMINE] | > 30 µM |
| C[C@]12C=CC(=O)N[C@@H]1CC[C@@H]1[C@@H]2CC[C@]2(C)[C@@H](C(=O)Nc3cc(C(F)(F)F)ccc3C(F)(F)F)CC[C@@H]12 [DUTASTERIDE] | > 10 µM |
| CCN(CC)C(=O)Nc1ccc(OCC(O)CNC(C)(C)C)c(C(C)=O)c1 (configuration not stated) [CELIPROLOL] | > 30 µM |
| Oc1ccc2c(c1)CC[C@H](c1ccccc1)[C@@H]2c1ccc(OCCN2CCCC2)cc1 [LASOFOXIFENE] | > 30 µM |
| CCCN(CCC)C(=O)Cc1c(-c2ccc(Cl)cc2)nc2ccc(Cl)cn12 [ALPIDEM] | > 30 µM |

---

# AC50 annotations
TARGET: 5-hydroxytryptamine receptor 2B (Homo sapiens); note: assay procedure not described here
Sequence (P41595 whole entry): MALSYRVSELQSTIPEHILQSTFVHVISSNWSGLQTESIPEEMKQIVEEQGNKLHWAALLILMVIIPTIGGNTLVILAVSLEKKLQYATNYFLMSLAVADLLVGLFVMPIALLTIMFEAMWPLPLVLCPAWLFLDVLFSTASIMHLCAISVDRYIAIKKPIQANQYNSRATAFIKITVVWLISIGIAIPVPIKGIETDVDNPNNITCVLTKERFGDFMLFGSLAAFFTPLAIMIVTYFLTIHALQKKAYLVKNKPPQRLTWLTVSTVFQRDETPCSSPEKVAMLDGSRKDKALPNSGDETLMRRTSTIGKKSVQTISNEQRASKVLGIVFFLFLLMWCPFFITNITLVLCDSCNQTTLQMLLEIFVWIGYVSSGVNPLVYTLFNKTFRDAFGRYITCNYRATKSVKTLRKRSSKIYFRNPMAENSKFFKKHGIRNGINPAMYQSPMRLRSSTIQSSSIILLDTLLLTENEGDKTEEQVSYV

| COMPOUND | AC50 |
| --- | --- |
| Nc1ccc(S(=O)(=O)Nc2nccs2)cc1 | > 10 µM |
| CCN(CC)CCNC(=O)c1c(C)[nH]c(/C=C2\C(=O)Nc3ccc(F)cc32)c1C | 0.158 µM |
| Oc1ccc2c(c1)CC[C@H](c1ccccc1)[C@@H]2c1ccc(OCCN2CCCC2)cc1 | 0.272 µM |
| C=C[C@H]1C[N@@]2CC[C@H]1C[C@@H]2[C@@H](O)c1ccnc2ccc(OC)cc12 | 2 µM |
| Cn1cnc2c(F)c(Nc3ccc(Br)cc3Cl)c(C(=O)NOCCO)cc21 | > 10 µM |
| [H]/N=C(/N)N/C(=N/[H])NCCc1ccccc1 | 8.9 µM |
| CCCN(CCC)C(=O)Cc1c(-c2ccc(Cl)cc2)nc2ccc(Cl)cn12 | > 10 µM |
| CN(C)CCc1c[nH]c2ccc(Cn3cncn3)cc12 | 12 µM |
| C=CC[C@@H]1/C=C(\C)C[C@H](C)C[C@H](OC)[C@H]2O[C@@](O)(C(=O)C(=O)N3CCCC[C@H]3C(=O)O[C@H](/C(C)=C/[C@@H]3CC[C@@H](O)[C@H](OC)C3)[C@H](C)[C@@H](O)CC1=O)[C@H](C)C[C@@H]2OC [TACROLIMUS ANHYDROUS] | > 10 µM |
| COc1ccccc1Oc1c(NS(=O)(=O)c2ccc(C(C)(C)C)cc2)nc(-c2ncccn2)nc1OCCO | > 10 µM |
| CC(C)NCC(O)c1ccc(O)c(O)c1 (configuration not stated) | > 10 µM |
| N[C@@H](CC(=O)N1CCn2c(nnc2C(F)(F)F)C1)Cc1cc(F)c(F)cc1F | > 10 µM |
| CO[C@H]1/C=C/O[C@@]2(C)Oc3c(C)c(O)c4c(O)c(c(/C=N/N5CCN(C)CC5)c(O)c4c3C2=O)NC(=O)/C(C)=C\C=C\[C@H](C)[C@H](O)[C@@H](C)[C@@H](O)[C@@H](C)[C@H](OC(C)=O)[C@@H]1C | > 10 µM |
| CCOC(=O)C1=C[C@]2(CC)CCCN3CCc4c(n1c1ccccc41)[C@@H]32 | > 30 µM |
| C[C@H]1c2cccc(O)c2C(=O)C2=C(O)[C@]3(O)C(=O)C(C(N)=O)=C(O)[C@@H](N(C)C)[C@@H]3[C@@H](O)[C@@H]21 | > 10 µM |
| Cn1c(=O)cc(N2CCC[C@@H](N)C2)n(Cc2ccccc2C#N)c1=O | > 10 µM |
| CCOC(=O)C1=C(C)NC(C)=C(C(=O)OC)C1c1cccc([N+](=O)[O-])c1 (configuration not stated) | > 10 µM |
| COc1cc(N)c(Cl)cc1C(=O)NC1CCN(Cc2ccccc2)CC1 [CLEBOPRIDE] | 0.0079 µM |
| COc1cc2nc(N3CCN(C(=O)C4CCCO4)CC3)nc(N)c2cc1OC (configuration not stated) | > 10 µM |
| CC(C)Cc1ccc(C(C)C(=O)O)cc1 (configuration not stated) | > 10 µM |
| C[C@@H](Oc1cc(-c2cnn(C3CCNCC3)c2)cnc1N)c1c(Cl)ccc(F)c1Cl | 0.316 µM |
| CCC[C@H](NC(=O)[C@@H]1[C@H]2CCC[C@H]2CN1C(=O)[C@@H](NC(=O)[C@@H](NC(=O)c1cnccn1)C1CCCCC1)C(C)(C)C)C(=O)C(=O)NC1CC1 | > 10 µM |
